Method summary: ADME solubility determination at pH 2.0 and pH 7.4
Type: physicochemical
Stated conditions: aqueous buffer, thermodynamic from solid; PBS pH 7.4, shaken at 25° C. for 24 hours, LC-MS/MS; read-out: Solubility at pH 7.4
Measured quantity: solubility at 24 h

>  <Molecule>
COc1ncnc(C2CC2)c1-c1ncc2cnn(Cc3ccc(-c4nc(C(F)(F)F)cn4C4COC4)cc3)c2n1

>  <Readout value>
> 10 µM

$$$$
>  <Molecule>
CCn1cc(C(F)(F)F)nc1-c1ccc(Cn2ncc3cnc(-c4c(OC5CC5)ncnc4C4CC4)nc32)cc1

>  <Readout value>
< 10 µM

$$$$
>  <Molecule>
COc1ncnc(C2CC2)c1-c1ncc2c(OC)nn(Cc3ccc(-c4cn(C(C)C)c(C(F)(F)F)n4)cc3)c2n1

>  <Readout value>
< 10 µM

$$$$
>  <Molecule>
COc1ncnc(C2CC2)c1-c1ncc2cnn(Cc3ccc(-c4csc(C(F)(F)F)n4)cc3)c2n1

>  <Readout value>
< 10 µM

$$$$
>  <Molecule>
COc1ncnc(C2CC2)c1-c1ncc2nc(C(C)C)n(Cc3ccc(-c4nc(C(F)(F)F)cn4C(C)C)cc3)c2n1

>  <Readout value>
< 10 µM

$$$$
>  <Molecule>
COc1ncnc(C2CC2)c1-c1ncc2cnn(Cc3ccc(-n4nc(C(F)F)cc4N(C)C)cc3)c2n1

>  <Readout value>
< 10 µM

$$$$
>  <Molecule>
CC(C)c1ccccc1-c1ncc2cnn(C(C)c3ccc(-c4nc(C(F)(F)F)cn4C)cc3)c2n1 (stereo not drawn)

>  <Readout value>
< 10 µM

$$$$
>  <Molecule>
CCS(=O)(=O)c1ccccc1-c1ncc2cnn(Cc3ccc(-c4nc(C(F)(F)F)cn4C)cc3)c2n1

>  <Readout value>
< 10 µM

$$$$
>  <Molecule>
COc1ncnc(C2CC2)c1-c1ncc2cnn(Cc3ccc(-c4nc(C(F)(F)F)cn4C4CCC4)cc3)c2n1

>  <Readout value>
< 10 µM

$$$$
>  <Molecule>
COc1ncnc(C2CC2)c1-c1ncc2cnn(Cc3ccc(-n4nc(C(F)(F)F)cc4CO)cc3)c2n1

>  <Readout value>
< 10 µM

$$$$
>  <Molecule>
CCOc1ncnc(OC)c1-c1ncc2cnn(Cc3ccc(-c4nc(C(F)(F)F)cn4CC)cc3)c2n1

>  <Readout value>
> 10 µM

$$$$
>  <Molecule>
CCn1cc(C(F)(F)F)nc1-c1ccc(Cn2ncc3cnc(-c4c(OC)ncnc4C4CN(C)C4)nc32)cc1

>  <Readout value>
< 10 µM

$$$$
>  <Molecule>
CCn1cc(C(F)(F)F)nc1-c1ccc([C@H](C)n2ncc3cnc(-c4c(OC)ncnc4C4CC4)nc32)cc1 (single isomer, unassigned)

>  <Readout value>
< 10 µM

$$$$
>  <Molecule>
COc1ncnc(C(C)C)c1-c1ncc2cnn(Cc3ccc(-c4nc(C(F)(F)F)cn4C(C)C)cc3)c2n1

>  <Readout value>
> 10 µM

$$$$
>  <Molecule>
COc1ncnc(C2CC2)c1-c1ncc2cnn(Cc3ccc(-c4nc(C#N)cn4C)cc3)c2n1

>  <Readout value>
> 10 µM

$$$$

* * *

Measured on: USP1/UAF1 (Homo sapiens (Human), UniProt O94782)
Sequence (O94782 whole entry): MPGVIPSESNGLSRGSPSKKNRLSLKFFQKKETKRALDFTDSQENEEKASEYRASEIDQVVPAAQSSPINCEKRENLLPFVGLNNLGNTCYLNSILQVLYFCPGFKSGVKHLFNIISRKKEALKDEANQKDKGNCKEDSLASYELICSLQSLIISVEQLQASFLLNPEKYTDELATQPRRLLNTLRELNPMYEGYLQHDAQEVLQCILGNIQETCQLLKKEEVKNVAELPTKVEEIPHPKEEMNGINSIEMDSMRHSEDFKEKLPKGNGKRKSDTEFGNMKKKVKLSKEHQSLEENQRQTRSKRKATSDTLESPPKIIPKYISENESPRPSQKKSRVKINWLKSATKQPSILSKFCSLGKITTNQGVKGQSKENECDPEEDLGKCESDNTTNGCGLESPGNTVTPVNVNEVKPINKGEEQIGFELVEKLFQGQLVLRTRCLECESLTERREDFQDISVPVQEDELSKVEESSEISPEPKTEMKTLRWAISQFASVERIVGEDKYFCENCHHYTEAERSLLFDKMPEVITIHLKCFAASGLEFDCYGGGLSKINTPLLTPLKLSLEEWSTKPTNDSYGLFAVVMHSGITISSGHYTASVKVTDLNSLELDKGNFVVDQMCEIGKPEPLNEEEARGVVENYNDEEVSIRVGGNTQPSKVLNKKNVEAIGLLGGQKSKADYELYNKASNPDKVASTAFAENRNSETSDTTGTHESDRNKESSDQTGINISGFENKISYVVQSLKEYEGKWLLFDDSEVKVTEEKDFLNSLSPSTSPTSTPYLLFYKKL
Sequence (Q8TAF3 whole entry partner): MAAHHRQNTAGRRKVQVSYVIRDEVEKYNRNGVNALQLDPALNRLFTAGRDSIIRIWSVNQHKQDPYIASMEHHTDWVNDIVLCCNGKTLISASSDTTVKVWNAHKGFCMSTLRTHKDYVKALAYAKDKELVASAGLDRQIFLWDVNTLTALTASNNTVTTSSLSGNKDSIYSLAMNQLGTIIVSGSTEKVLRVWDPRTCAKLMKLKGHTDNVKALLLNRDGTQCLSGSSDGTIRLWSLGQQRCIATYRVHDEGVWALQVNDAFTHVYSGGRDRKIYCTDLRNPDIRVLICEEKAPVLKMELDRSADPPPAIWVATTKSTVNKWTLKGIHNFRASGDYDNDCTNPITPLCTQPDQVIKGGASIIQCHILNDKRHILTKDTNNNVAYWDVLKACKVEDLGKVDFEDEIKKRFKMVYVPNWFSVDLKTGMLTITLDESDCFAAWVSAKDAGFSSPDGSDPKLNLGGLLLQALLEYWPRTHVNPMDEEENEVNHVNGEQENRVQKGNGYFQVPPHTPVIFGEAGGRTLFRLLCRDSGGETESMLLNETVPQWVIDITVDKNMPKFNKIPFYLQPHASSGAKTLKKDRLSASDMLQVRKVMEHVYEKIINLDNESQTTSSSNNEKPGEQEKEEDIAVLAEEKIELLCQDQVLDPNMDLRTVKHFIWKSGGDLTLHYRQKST
Method summary: Deubiquitination assay for USP1/UAF1 activity (ubiquitin-rhodamine 110)
Format: biochemical
Stated conditions: Table 3; 0.05 nM USP1/UAF1, 150 nM ubiquitin-rhodamine
Measured quantity: IC50

>  <Compound>
COc1ncnc(C2CC2)c1-c1ncc2cnn(Cc3ccc(-c4nc(C(F)(F)F)cn4C4CC4)cc3)c2n1 [drawing 739]

>  <Readout value>
10 to 100 nM

$$$$
>  <Compound>
COc1ncnc(C2CC2)c1-c1ncc2cnn(Cc3ccc(-c4nc(C(F)(F)F)cn4C4CCC4)cc3)c2n1 [drawing 732]

>  <Readout value>
< 10 nM

$$$$
>  <Compound>
Cn1cc(C(F)(F)F)nc1-c1ccc(Cn2ncc3cnc(-c4c(C5CC5)ncnc4N4CCCC4)nc32)cc1

>  <Readout value>
> 200 nM

$$$$
>  <Compound>
COc1ncnc(C2CC2)c1-c1ncc2cnn(Cc3ccc(-c4nc(C(F)F)nn4C)cc3)c2n1

>  <Readout value>
> 200 nM

$$$$
>  <Compound>
COc1ncnc(OC)c1-c1ncc2cnn(Cc3ccc(-c4nc(C(F)(F)F)cn4C)cc3)c2n1 [drawing 766]

>  <Readout value>
10 to 100 nM

$$$$
>  <Compound>
COCCOc1ncnc(C)c1-c1ncc2cnn(Cc3ccc(-n4nc(C(F)(F)F)cc4C)cc3)c2n1 [drawing 789]

>  <Readout value>
> 200 nM

$$$$
>  <Compound>
CCn1cc(C(F)(F)F)nc1-c1ccc(Cn2ncc3cnc(-c4c(OC)cnn4C4CC4)nc32)cc1 [drawing 761]

>  <Readout value>
10 to 100 nM

$$$$
>  <Compound>
COc1ncnc(C(C)(C)F)c1-c1ncc2cnn(Cc3ccc(-c4nc(C(F)(F)F)cn4C)cc3)c2n1 [drawing 772]

>  <Readout value>
10 to 100 nM

$$$$
>  <Compound>
COc1ncnc(C2CC2)c1-c1ncc2cnn(Cc3ccc(-n4nc(C(F)(F)F)cc4OC)cc3)c2n1 [drawing 737]

>  <Readout value>
10 to 100 nM

$$$$
>  <Compound>
CCn1cc(C(F)(F)F)nc1-c1ccc(Cn2ncc3cnc(-c4c(OC5CC5)ncnc4C4CC4)nc32)cc1 [drawing 750]

>  <Readout value>
10 to 100 nM

$$$$
>  <Compound>
COc1ncnc(C2CC2)c1-c1ncc2cnn(Cc3ccc(-c4nc(C(F)F)n(C)n4)cc3)c2n1

>  <Readout value>
> 200 nM

$$$$

* * *

Method summary: Liver microsomal stability, human liver microsomes
Assay type: in vitro ADME
Stated conditions: 1 μM compound, NADPH, read-out: t1/2 (min) in HLM

>  <Molecule>
CC(C)c1c(F)cccc1-c1ncc2cnn(Cc3ccc(-c4nc(C(F)(F)F)cn4C)cc3)c2n1

>  <half-life at 1 μM>
< 25 min

$$$$
>  <Molecule>
COc1cccc(C2CC2)c1-c1ncc2cnn(Cc3ccc(-c4nc(C(F)(F)F)cn4C)cc3)c2n1

>  <half-life at 1 μM>
< 25 min

$$$$
>  <Molecule>
CCn1cc(C(F)(F)F)nc1-c1ccc([C@H](C)n2ncc3cnc(-c4c(OC)ncnc4C4CC4)nc32)cc1 (single isomer, unassigned)

>  <half-life at 1 μM>
> 25 min

$$$$
>  <Molecule>
CNc1cc(C(F)(F)F)nn1-c1ccc(Cn2ncc3cnc(-c4c(OC)ncnc4C4CC4)nc32)cc1

>  <half-life at 1 μM>
< 25 min

$$$$
>  <Molecule>
CC(C)c1ccccc1-c1ncc2cnn(Cc3ccc(-c4nc(C(F)(F)F)cn4C)cc3)c2n1

>  <half-life at 1 μM>
< 25 min

$$$$
>  <Molecule>
COc1ncnc(C2CC2)c1-c1ncc2cnn(Cc3ccc(-c4nc(C(F)(F)F)nn4C)cc3)c2n1

>  <half-life at 1 μM>
> 25 min

$$$$
>  <Molecule>
CCn1cc(C(F)(F)F)nc1-c1ccc(C(C)n2ncc3cnc(-c4c(OC)ncnc4C(C)C)nc32)cc1F (stereo not drawn)

>  <half-life at 1 μM>
< 25 min

$$$$
>  <Molecule>
COc1ncnc(C2CC2)c1-c1ncc2cnn(Cc3ccc(-c4nc(C#N)cn4C)cc3)c2n1

>  <half-life at 1 μM>
< 25 min

$$$$
>  <Molecule>
CCn1cc(C(F)(F)F)nc1-c1ccc([C@H](C)n2ncc3cnc(-c4c(OC)ncnc4OC)nc32)cc1

>  <half-life at 1 μM>
> 25 min

$$$$
>  <Molecule>
COc1ncnc(C2CC2)c1-c1ncc2ncn(Cc3ccc(-c4nc(C(F)(F)F)cn4C(C)C)cc3)c2n1

>  <half-life at 1 μM>
> 25 min

$$$$
>  <Molecule>
Cc1cnn(C(C)C)c1-c1ncc2cnn(Cc3ccc(-n4nc(C(F)(F)F)cc4C)cc3)c2n1

>  <half-life at 1 μM>
< 25 min

$$$$
>  <Molecule>
COCCOc1cc(C(F)(F)F)nn1-c1ccc(Cn2ncc3cnc(-c4c(OC)ncnc4C4CC4)nc32)cc1

>  <half-life at 1 μM>
< 25 min

$$$$
>  <Molecule>
COCC(C)n1cc(C(F)(F)F)nc1-c1ccc(Cn2ncc3cnc(-c4c(OC)ncnc4C4CC4)nc32)cc1 (stereo not drawn)

>  <half-life at 1 μM>
< 25 min

$$$$
>  <Molecule>
COc1ncnc(C2CC2)c1-c1ncc2cnn(Cc3ccc(-n4nc(C(F)(F)F)cc4CO)cc3)c2n1

>  <half-life at 1 μM>
> 25 min

$$$$
>  <Molecule>
COc1nc(N)nc(C2CC2)c1-c1ncc2cnn(Cc3ccc(-n4nc(C(F)(F)F)cc4C)cc3)c2n1

>  <half-life at 1 μM>
> 25 min

$$$$

* * *

Method summary: Liver microsomal stability, rat liver microsomes
Type: in vitro ADME
Stated conditions: 1 μM compound, NADPH, read-out: t1/2 (min) in RLM
Measured quantity: half-life at 1 μM

>  <Compound>
COc1ncnc(C2CC2)c1-c1ncc2cnn(Cc3ccc(-c4nc(C(F)(F)F)cn4C4CN(C)C4)cc3)c2n1 [Example 153]

>  <Readout value>
< 25 min

$$$$
>  <Compound>
COc1ncnc(C2CC2)c1-c1ncc2cnn(Cc3ccc(-n4nc(C(F)(F)F)cc4C)cc3)c2n1 [Example 27]

>  <Readout value>
> 25 min

$$$$
>  <Compound>
COc1ncnc(C2CC2)c1-c1ncc2cnn(Cc3ccc(-c4nc(C(F)(F)F)cn4C(C)CF)cc3)c2n1 (stereo not shown) [Example 151]

>  <Readout value>
> 25 min

$$$$
>  <Compound>
COc1ncnc(C2CC2)c1-c1ncc2cnn(Cc3ccc(-c4nc(C(F)(F)F)c[nH]4)cc3)c2n1 [Example 134]

>  <Readout value>
> 25 min

$$$$
>  <Compound>
COc1ncnc(C2CC2)c1-c1ncc2cnn([C@@H](C)c3ccc(-c4nc(C(F)(F)F)cn4CCF)cc3)c2n1 [Example 169]

>  <Readout value>
> 25 min

$$$$
>  <Compound>
Cc1cc(C(F)(F)F)nn1-c1ccc(Cn2ncc3cnc(-c4cccnc4C#N)nc32)cc1 [Example 49]

>  <Readout value>
> 25 min

$$$$
>  <Compound>
CCn1c(-c2ccc(Cn3ncc4cnc(-c5c(OC)ncnc5C5CC5)nc43)cc2)nc(C(F)(F)F)c1OC [Example 164]

>  <Readout value>
< 25 min

$$$$
